Test system: ABUTH
Assay: Post-emergence herbicidal action against ABUTH
Type: in vivo, Abutilon theophrasti
Details: dosage 5 g/ha, visual assessment about 3 weeks after treatment vs untreated controls
QUANTITY: Post-emergence action against ABUTH in % (%)
Answers are plain numbers, in %.

Ask: Please look up its Post-emergence action against ABUTH in %: COCCNC(=O)c1c(C(F)F)ccc(C(=O)Nc2nnnn2C)c1C [Example 1-347]
Reply: 80

Ask: // query Post-emergence action against ABUTH in % value for entry CCn1nnnc1NC(=O)c1ccc(C(F)F)c(C(=O)NC2CC2)c1OC [Example 2-74]
Reply: 80

Next:
Ask: What does the data say about its Post-emergence action against ABUTH in %? Entry: COCCNC(=O)c1c(C(F)(F)F)ccc(C(=O)Nc2nnnn2C)c1C [Example 1-34]
Reply: 90

###

Exercise: for every item that follows, state its recorded Post-emergence action against ECHCG in %.
System: ECHCG
Assay: Post-emergence herbicidal action against ECHCG
Type: in vivo, Echinochloa crus-galli
Conditions: dosage 20 g/ha
Numbers only, in %.

Below: 10 compounds and their reported Post-emergence action against ECHCG in %.
Ask: Name the recorded Post-emergence action against ECHCG in % for CCNC(=O)c1c(C(F)F)ccc(C(=O)Nc2nnnn2CC)c1C [Example 2-45] .
Reply: 80

Ask: Name the recorded Post-emergence action against ECHCG in % for CCCNC(=O)c1c(C(F)F)ccc(C(=O)Nc2nnnn2CC)c1Cl [Example 2-154] .
Reply: 90

Ask: Quick check: Post-emergence action against ECHCG in % of CCNC(=O)c1c(C(F)(F)F)ccc(C(=O)Nc2nnco2)c1Cl [Example 5-117] ?
Reply: 80

Ask: // lookup Post-emergence action against ECHCG in % for CCn1nnnc1NC(=O)c1ccc(C(F)F)c(C(=O)NC2CC2)c1C [Example 2-46]
Reply: 80

Ask: Could you share which Post-emergence action against ECHCG in % value was measured for CCn1nnnc1NC(=O)c1ccc(C(F)(F)F)c(C(=O)NCC(F)F)c1C1CC1 [Example 2-291] ?
Reply: 80

Ask: Give the measured Post-emergence action against ECHCG in % of Cc1nnc(NC(=O)c2ccc(C(F)(F)F)c(C(=O)NC(C)C3CC3)c2Cl)o1 (centres unmarked) [Example 6-254] .
Reply: 90

Ask: Suppose we examine the compound CC(NC(=O)c1c(C(F)(F)F)ccc(C(=O)Nc2nnnn2C)c1Cl)C1CC1 (centres unmarked) [Example 1-135] ; what Post-emergence action against ECHCG in % value has been reported?
Reply: 100

Ask: Value lookup for Post-emergence action against ECHCG in %; key = Cc1nnc(NC(=O)c2ccc(C(F)F)c(C(=O)NCC(F)(F)F)c2Br)o1 [Example 6-168]
Reply: 80

Ask: What value of Post-emergence action against ECHCG in % has been reported for the following compound? Cc1nnc(NC(=O)c2ccc(C(F)F)c(C(=O)NC3CC3)c2C2CC2)o1 [Example 6-233]
Reply: 80

Ask: What measured Post-emergence action against ECHCG in % goes with COc1c(C(=O)Nc2nnc(C)o2)ccc(C(F)(F)F)c1C(=O)NC1CC1 [Example 6-45] ?
Reply: 90

Go through the items and report each one's Post-emergence action against ECHCG in %.
1. CCn1nnnc1NC(=O)c1ccc(C(F)F)c(C(=O)NC)c1SC [Example 2-87]
2. CCc1c(C(=O)Nc2nnc(C)o2)ccc(C(F)(F)F)c1C(=O)NC1CC1 [Example 6-212]
3. CCn1nnnc1NC(=O)c1ccc(C(F)(F)F)c(C(=O)NCC(F)(F)F)c1Br [Example 2-211]
4. Cc1c(C(=O)Nc2nnnn2C)ccc(C(F)F)c1C(=O)NCC1CC1 [Example 1-47]

Reply:
80
90
80
90
